Reference source for all entries: patent US20240409585A1

target: PE-labeled human PD-L1-Ig binding to Jurkat cell line over-expressing human PD-1 (Jurkat-PD-1) (Homo sapiens, UniProt Q15116); construct: expressed in transfected cells; host or cells: Jurkat; test: Jurkat-PD-1 Cell Binding High-Content Screening Assay (CBA): Method 1; settings: Jurkat-hPD-1 cells, PE-labeled PD-L1-Ig 20 nM final; read-out: Jurkat HPDL1 PD1 IC50 (uM) (Method 1)
Sequence (Q15116 25-288): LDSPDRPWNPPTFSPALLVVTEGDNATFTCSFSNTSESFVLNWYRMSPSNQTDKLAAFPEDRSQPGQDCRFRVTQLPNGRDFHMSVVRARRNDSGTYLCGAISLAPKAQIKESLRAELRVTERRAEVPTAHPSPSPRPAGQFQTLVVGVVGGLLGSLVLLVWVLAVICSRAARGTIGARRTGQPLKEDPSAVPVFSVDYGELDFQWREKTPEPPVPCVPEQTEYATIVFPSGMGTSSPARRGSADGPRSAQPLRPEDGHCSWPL
Bridge positions count the residues as written; N and C are the ends. Square brackets hold non-standard residues; d marks the D form. Peptide text beside a SMILES is read from it. Bip = N[C@@H](Cc1ccc(-c2ccccc2)cc1)C(=O)O; Phe(3-Cl) = N[C@@H](Cc1cccc(Cl)c1)C(=O)O; 4Pal = N[C@@H](Cc1ccncc1)C(=O)O; NMeA = CN[C@@H](C)C(=O)O; Orn = NCCC[C@H](N)C(=O)O; Dab = NCC[C@H](N)C(=O)O
IC50 reference

| compound | IC50 [µM] |
| --- | --- |
| CC(C)C[C@@H]1NC(=O)[C@H](CCN)NC(=O)[C@@H](CC(C)C)NC(=O)[C@H](C)N(C)C(=O)[C@H](CCCNC(=N)N)NC(=O)[C@H](Cc2ccc(-c3ccccc3)cc2)NC(=O)[C@H](C(C)C)NC(=O)[C@H](Cc2c[nH]c3ccccc23)NC(=O)[C@H](CC(=O)O)NC(=O)[C@H](Cc2ccncc2)NC(=O)[C@H](CC(N)=O)NC(=O)CSC[C@@H](C(=O)N[C@@H](C)C(N)=O)NC(=O)[C@H]([C@@H](C)O)NC(=O)[C@H](C(C)C)NC1=O [Compound 1146] ({CH2CO}-N[4Pal]DWV[Bip]R[NMeA][dL][Dab]LVTCA-NH2; thioether N-14) | 0.06 |
| CC(C)C[C@@H]1NC(=O)[C@H](CCN)NC(=O)[C@@H](CC(C)C)NC(=O)[C@H](C)N(C)C(=O)[C@H](CCCN)NC(=O)[C@H](Cc2ccc(-c3ccccc3)cc2)NC(=O)[C@H](C(C)C)NC(=O)[C@H](Cc2c[nH]c3ccccc23)NC(=O)[C@H](CC(=O)O)NC(=O)[C@H](Cc2ccc(O)cc2)NC(=O)[C@H](CCC(N)=O)NC(=O)CSC[C@@H](C(=O)N[C@@H](C)C(N)=O)NC(=O)[C@H]([C@@H](C)O)NC(=O)[C@H](C(C)C)NC1=O [Compound 1363] ({CH2CO}-QYDWV[Bip][Orn][NMeA][dL][Dab]LVTCA-NH2; thioether N-14) | 0.11 |
| CC(C)C[C@@H]1NC(=O)[C@H](CCN)NC(=O)[C@@H](CC(C)C)NC(=O)[C@H](C)N(C)C(=O)[C@H](C(C)C)NC(=O)[C@H](Cc2ccc(-c3ccccc3)cc2)NC(=O)[C@H](C(C)C)NC(=O)[C@H](Cc2cccc(Cl)c2)NC(=O)[C@H](CC(=O)O)NC(=O)[C@H](Cc2ccc(O)cc2)NC(=O)[C@H](CC(N)=O)NC(=O)CSC[C@@H](C(=O)N[C@@H](C)C(N)=O)NC(=O)[C@H]([C@@H](C)O)NC(=O)[C@H](C(C)C)NC1=O [Compound 1265] ({CH2CO}-NYD[Phe(3-Cl)]V[Bip]V[NMeA][dL][Dab]LVTCA-NH2; thioether N-14) | 0.01 |
| CC(C)C[C@@H]1NC(=O)[C@H](Cc2c[nH]c3ccccc23)NC(=O)[C@H](CC(=O)O)NC(=O)[C@H](Cc2ccc(O)cc2)NC(=O)[C@H](Cc2ccccc2)NC(=O)CSC[C@@H](C(=O)N[C@@H](C)C(N)=O)NC(=O)[C@H](CO)NC(=O)[C@H](C(C)C)NC(=O)[C@H](CC(C)C)NC(=O)[C@H](CCCCN)NC(=O)[C@@H](C)NC(=O)[C@H](C)N(C)C(=O)[C@H](C(C)C)NC(=O)[C@H](Cc2ccc(-c3ccccc3)cc2)NC1=O [Compound 1748] ({CH2CO}-FYDWL[Bip]V[NMeA][dA]KLVSCA-NH2; thioether N-14) | 0.02 |

###

molecular target: PE-labeled human PD-L1-Ig binding to Jurkat cell line over-expressing human PD-1 (Jurkat-PD-1) (Homo sapiens); construct: expressed in transfected cells; host or cells: Jurkat; test: Jurkat-PD-1 Cell Binding High-Content Screening Assay (CBA): Method 1; conditions: Jurkat-hPD-1 cells, PE-labeled PD-L1-Ig 20 nM final; read-out: Jurkat HPDL1 PD1 IC50 (uM) (Method 1)
Bridge positions count the residues as written; N and C are the ends. Square brackets hold non-standard residues; d marks the D form. Peptide text beside a SMILES is read from it. Phe(4-CH2NH2) = NCc1ccc(C[C@H](N)C(=O)O)cc1; Bip = N[C@@H](Cc1ccc(-c2ccccc2)cc1)C(=O)O; Phe(3-Cl) = N[C@@H](Cc1cccc(Cl)c1)C(=O)O; 4Pal = N[C@@H](Cc1ccncc1)C(=O)O; Cha = N[C@@H](CC1CCCCC1)C(=O)O; NMeA = CN[C@@H](C)C(=O)O; Dab = NCC[C@H](N)C(=O)O
measurement label: IC50

| compound | result |
| --- | --- |
| CC(C)C[C@@H]1NC(=O)[C@H](CCCNC(=N)N)NC(=O)[C@H](Cc2cccc(Cl)c2)NC(=O)[C@H](C)N(C)C(=O)[C@H](CCCNC(=N)N)NC(=O)[C@H](Cc2ccc(-c3ccccc3)cc2)NC(=O)[C@H](C(C)C)NC(=O)[C@H](Cc2c[nH]c3ccccc23)NC(=O)[C@H](CC(=O)O)NC(=O)[C@H](Cc2ccc(O)cc2)NC(=O)[C@H](Cc2ccccc2)NC(=O)CSC[C@@H](C(=O)NCC(N)=O)NC(=O)[C@H](CO)NC(=O)[C@H](C(C)C)NC1=O [Compound 1014] ({CH2CO}-FYDWV[Bip]R[NMeA][Phe(3-Cl)]RLVSCG-NH2; thioether N-14) | 0.2 µM |
| CC(C)C[C@H]1NC(=O)[C@H](C)N(C)C(=O)[C@H](C(C)C)NC(=O)[C@H](Cc2ccc(-c3ccccc3)cc2)NC(=O)[C@H](C(C)C)NC(=O)[C@H](Cc2c[nH]c3ccccc23)NC(=O)[C@H](CC(=O)O)NC(=O)[C@H](Cc2ccncc2)NC(=O)[C@H](Cc2ccc(CN)cc2)NC(=O)CSC[C@@H](C(N)=O)NC(=O)[C@H](CO)NC(=O)[C@H](C(C)C)NC(=O)[C@H](CC2CCCCC2)NC(=O)[C@H](CC(N)=O)NC1=O [Compound 2242] ({CH2CO}-[Phe(4-CH2NH2)][4Pal]DWV[Bip]V[NMeA][dL]N[Cha]VSC-NH2; thioether N-14) | 0.03 µM |
| CC(C)C[C@@H]1NC(=O)[C@H](CCN)NC(=O)[C@@H](CC(C)C)NC(=O)[C@H](C)N(C)C(=O)[C@H](CO)NC(=O)[C@H](Cc2ccc(-c3ccccc3)cc2)NC(=O)[C@H](C(C)C)NC(=O)[C@H](Cc2c[nH]c3ccccc23)NC(=O)[C@H](CC(=O)O)NC(=O)[C@H](Cc2ccc(O)cc2)NC(=O)[C@H](CC(N)=O)NC(=O)CSC[C@@H](C(=O)N[C@@H](C)C(N)=O)NC(=O)[C@H]([C@@H](C)O)NC(=O)[C@H](C(C)C)NC1=O [Compound 1261] ({CH2CO}-NYDWV[Bip]S[NMeA][dL][Dab]LVTCA-NH2; thioether N-14) | 0.08 µM |
| CC(C)C[C@@H]1NC(=O)[C@H](CCN)NC(=O)[C@@H](CC(C)C)NC(=O)[C@H](C)N(C)C(=O)[C@H](CCCNC(=N)N)NC(=O)[C@H](Cc2ccc(-c3ccccc3)cc2)NC(=O)[C@H](C(C)C)NC(=O)[C@H](Cc2c[nH]c3ccccc23)NC(=O)[C@H](CC(N)=O)NC(=O)[C@H](Cc2ccc(O)cc2)NC(=O)[C@H](CC(N)=O)NC(=O)CSC[C@@H](C(=O)N[C@@H](C)C(N)=O)NC(=O)[C@H]([C@@H](C)O)NC(=O)[C@H](C(C)C)NC1=O [Compound 1186] ({CH2CO}-NYNWV[Bip]R[NMeA][dL][Dab]LVTCA-NH2; thioether N-14) | 0.93 µM |

###

IC50 reference
molecular target: PE-labeled human PD-L1-Ig binding to Jurkat cell line over-expressing human PD-1 (Jurkat-PD-1) (Homo sapiens, UniProt Q15116); construct: expressed in transfected cells; host or cells: Jurkat; assay: Jurkat-PD-1 Cell Binding High-Content Screening Assay (CBA): Method 1; details: Jurkat-hPD-1 cells, PE-labeled PD-L1-Ig 20 nM final; read-out: Jurkat HPDL1 PD1 IC50 (uM) (Method 1)
Bridge positions count the residues as written; N and C are the ends. Square brackets hold non-standard residues; d marks the D form. Peptide text beside a SMILES is read from it. Bip = N[C@@H](Cc1ccc(-c2ccccc2)cc1)C(=O)O; NMeA = CN[C@@H](C)C(=O)O; Nle = CCCC[C@H](N)C(=O)O; Dab = NCC[C@H](N)C(=O)O; Dap = NC[C@H](N)C(=O)O

| compound | IC50 / µM |
| --- | --- |
| CC(C)C[C@@H]1NC(=O)[C@H](CCCNC(=N)N)NC(=O)[C@@H](CC(C)C)NC(=O)[C@H](C)N(C)C(=O)[C@H](CCCNC(=N)N)NC(=O)[C@H](Cc2ccc(-c3ccccc3)cc2)NC(=O)[C@H](C(C)C)NC(=O)[C@H](Cc2c[nH]c3ccccc23)NC(=O)[C@H](CC(=O)O)NC(=O)[C@H](Cc2ccc(O)cc2)NC(=O)[C@H](Cc2ccccc2)NC(=O)CSC[C@@H](C(=O)N[C@@H](C)C(N)=O)NC(=O)[C@H](CO)NC(=O)[C@H](C(C)C)NC1=O [Compound 1035] ({CH2CO}-FYDWV[Bip]R[NMeA][dL]RLVSCA-NH2; thioether N-14) | 0.08 |
| CC[C@H](C)[C@@H]1NC(=O)[C@H](Cc2ccc(-c3ccccc3)cc2)NC(=O)[C@H](C(C)C)NC(=O)[C@H](Cc2c[nH]c3ccccc23)NC(=O)[C@H](CC(=O)O)NC(=O)[C@H](Cc2ccc(O)cc2)NC(=O)[C@H](CN)NC(=O)CSC[C@@H](C(=O)N[C@@H](C)C(N)=O)NC(=O)[C@H]([C@@H](C)O)NC(=O)[C@H](C(C)C)NC(=O)[C@H](CC(C)C)NC(=O)[C@H](CCCNC(=N)N)NC(=O)[C@@H](CC(C)C)NC(=O)[C@H](C)N(C)C1=O [Compound 1488] ({CH2CO}-[Dap]YDWV[Bip]I[NMeA][dL]RLVTCA-NH2; thioether N-14) | 0.04 |
| CC(C)C[C@@H]1NC(=O)[C@H](Cc2c[nH]c3ccccc23)NC(=O)[C@H](CC(=O)O)NC(=O)[C@H](Cc2ccc(O)cc2)NC(=O)[C@H](Cc2ccccc2)NC(=O)CSC[C@@H](C(=O)N[C@@H](C)C(N)=O)NC(=O)[C@H](CO)NC(=O)[C@H](CCCCN)NC(=O)[C@H](CC(C)C)NC(=O)[C@H](CC(N)=O)NC(=O)[C@@H](CC(C)C)NC(=O)[C@H](C)N(C)C(=O)[C@H](C(C)C)NC(=O)[C@H](Cc2ccc(-c3ccccc3)cc2)NC1=O [Compound 1536] ({CH2CO}-FYDWL[Bip]V[NMeA][dL]NLKSCA-NH2; thioether N-14) | 0.01 |
| CCCC[C@@H]1NC(=O)[C@H](CCN)NC(=O)[C@@H](CC(C)C)NC(=O)[C@H](C)N(C)C(=O)[C@H](C(C)C)NC(=O)[C@H](Cc2ccc(-c3ccccc3)cc2)NC(=O)[C@H](C(C)C)NC(=O)[C@H](Cc2c[nH]c3ccccc23)NC(=O)[C@H](CC(=O)O)NC(=O)[C@H](Cc2ccc(O)cc2)NC(=O)[C@H](CC(N)=O)NC(=O)CSC[C@@H](C(=O)N[C@@H](C)C(N)=O)NC(=O)[C@H]([C@@H](C)O)NC(=O)[C@H](C(C)C)NC1=O [Compound 1295] ({CH2CO}-NYDWV[Bip]V[NMeA][dL][Dab][Nle]VTCA-NH2; thioether N-14) | 0.02 |
